Target or system p38-α (Homo sapiens): recorded IC50 listed per item.
Unit µM implied. Number only.

- structure notation: "O=C(NCc1nnc(-c2ccc(=O)[nH]c2)s1)c1cc(C(=O)c2c(F)cc(F)cc2F)c[nH]1"
  IC50 / µM: 0.0704
- structure notation: "O=C(NCc1nnc(-c2csnn2)s1)c1cc(C(=O)c2c(F)cc(F)cc2F)c[nH]1"
  IC50 / µM: 0.634
- structure notation: "CCOc1ncccc1-c1nnc(CNC(=O)c2cc(C(=O)c3c(F)cc(F)cc3F)c[nH]2)s1"
  IC50 / µM: 0.135

Next compound, please.
The value of IC50 recorded for Cc1cc(-c2nnc(CNC(=O)c3cc(Cc4c(F)cc(F)cc4F)c[nH]3)s2)[nH]n1 when tested on p38-α (Homo sapiens) reads 0.243
